Taken from the RNAGym collection of RNA variant scans (doi:10.1073/pnas.2313332121).

B1: TPR 5TU (parent)
chain: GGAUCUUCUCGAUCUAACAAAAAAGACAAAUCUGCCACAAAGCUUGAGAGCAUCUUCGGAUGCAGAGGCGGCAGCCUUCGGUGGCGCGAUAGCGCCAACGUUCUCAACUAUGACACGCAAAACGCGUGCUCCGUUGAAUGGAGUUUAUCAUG

Variants of: B1
experimental details: polymerase ribozyme fitness, log enrichment relative to wild type (log ratio); higher = more active; in vitro selection for triplet polymerase activity
Fewer inactive variants are shown than the library holds.
// not fulfilled strictly below -3 in polymerase ribozyme fitness (log ratio); fulfilled otherwise

Query :: # bool: polymerase ribozyme fitness (log ratio) of A26U U56A U101G A115G >= -3
Result :: not fulfilled

Query :: # bool: polymerase ribozyme fitness (log ratio) of G11U U104G >= -3
Result :: fulfilled

Query :: # bool: polymerase ribozyme fitness (log ratio) of G46C C57U U61G C75G A119U G141A >= -3
Result :: not fulfilled

Query :: # bool: polymerase ribozyme fitness (log ratio) of U45G A137C >= -3
Result :: not fulfilled

Query :: # bool: polymerase ribozyme fitness (log ratio) of U13G A137U >= -3
Result :: not fulfilled

Query :: # bool: polymerase ribozyme fitness (log ratio) of C93A C118U >= -3
Result :: not fulfilled

Query :: # bool: polymerase ribozyme fitness (log ratio) of U61A A89C A107U G117U U144G U151A >= -3
Result :: not fulfilled

Query :: # bool: polymerase ribozyme fitness (log ratio) of G65U U82A C93U C95G >= -3
Result :: not fulfilled

Query :: # bool: polymerase ribozyme fitness (log ratio) of G58U A89G >= -3
Result :: fulfilled

Query :: # bool: polymerase ribozyme fitness (log ratio) of A19U A41C A73U A91C C93U C129G G140U C149U >= -3
Result :: not fulfilled

Query :: # bool: polymerase ribozyme fitness (log ratio) of G143C >= -3
Result :: fulfilled

Query :: # bool: polymerase ribozyme fitness (log ratio) of C99U U104G >= -3
Result :: fulfilled

Query :: # bool: polymerase ribozyme fitness (log ratio) of A41C G84A >= -3
Result :: fulfilled

Query :: # bool: polymerase ribozyme fitness (log ratio) of C85A A115C >= -3
Result :: fulfilled

Query :: # bool: polymerase ribozyme fitness (log ratio) of U55A C87G U101G G143A >= -3
Result :: not fulfilled

Query :: # bool: polymerase ribozyme fitness (log ratio) of C54A U56A >= -3
Result :: fulfilled

Query :: # bool: polymerase ribozyme fitness (log ratio) of G48U U56A C87G U90C >= -3
Result :: not fulfilled

Query :: # bool: polymerase ribozyme fitness (log ratio) of A22U A52C G58C G84U C99A >= -3
Result :: not fulfilled

Query :: # bool: polymerase ribozyme fitness (log ratio) of A22C G92C C114U A150C >= -3
Result :: not fulfilled

Query :: # bool: polymerase ribozyme fitness (log ratio) of C57G A73U G83C G133U G143C U145C >= -3
Result :: not fulfilled

Query :: # bool: polymerase ribozyme fitness (log ratio) of A26U U151C >= -3
Result :: not fulfilled

Query :: # bool: polymerase ribozyme fitness (log ratio) of G88A >= -3
Result :: not fulfilled
